Data provenance is the DeepSol protein solubility set.

Assay: soluble on expression in E. coli; label from the status in PepcDB or PDB records
MEASURED METRIC: soluble on expression in E. coli

SEQUENCE INPUT: MSLAKNVNASVEETFKKSGIPVKVDKSNGQVTFGEKTMFDVDSDVLKPEAKEMLKMFVPKYIETIYKDYGDYISKIVIEGHTDDVGSYIYNLDLSQRRAYSVAKFIVGDEIGDYKYKDKVTKHIIAIGRSKAELIKNGDNSVNRDASRRVELKYEININQNKEGHHHHHH
soluble on expression in E. coli: soluble
//
SEQUENCE INPUT: MGHHHHHHSHMRRAELAGLKTMAWVPAESAVEELMPRLLPVEPCDLTEGFDPSVPPRTPQEYLRRVQIEAAQCPDVVVAQIDPKKLKRKQSVNISLSGCQPAPEGYSPTLQWQQQQVAQFSTVRQNVNKHRSHWKSQQLDSNVTMPKSEDEEGWKKFCLGEKLCADGAVGPATNESPGIDYVQIGFPPLLSIVSRMNQATVTSVLEYLSNWFGERDFTPELGRWLYALLACLEKPLLPEAHSLIRQLARRCSEVRLLVDSKDDERVPALNLLICLVSRYFDQRDLADEPS
soluble on expression in E. coli: not soluble
//
SEQUENCE INPUT: MGNVMEGKSVEELSSTECHQWYKKFMTECPSGQLTLYEFRQFFGLKNLSPSASQYVEQMFETFDFNKDGYIDFMEYVAALSLVLKGKVEQKLRWYFKLYDVDGNGCIDRDELLTIIQAIRAINPCSDTTMTAEEFTDTVFSKIDVNGDGELSLEEFIEGVQKDQMLLDTLTRSLDLTRIVRRLQNGEQDEEGADEAAEAAG
soluble on expression in E. coli: not soluble
//
SEQUENCE INPUT: MGSDKIHHHHHHMNYPQEKIKPYSNDGKKSEQVEQMFDNIAPAYDQLNHTLSLGIDRSWRRKAINWLKPFRPQQIMDVATGTGDFAILACHELQPEQLIGTDISEGMMNVGREKVKKEGLSEKISFAREDCTSLSFADNRFDAITVAFGIRNFEDLDKGLSEMYRVLKTGGHLVILELTTPDRFPMKQMFTIYSKIVIPTLGKLLSKDNSAYSYLPQTIKAFPQGEVMKNVISRVGFSQVQFRRLTFGICTLYTATK
soluble on expression in E. coli: not soluble
//
SEQUENCE INPUT: SSNAKFDQFSSDFQTFNAKFDQFSNDMNAFRSDFQAFKDDFARFNQRFDNFATKYR
soluble on expression in E. coli: soluble
//
SEQUENCE INPUT: MGKIFCIVQARMGSERLQGKVIKPILKKPMVIYTLDRLKKSKYIDKIVLATSSMERETPLVESCEEYGYDVFKGSEANVLKRYEQAAEKYGANIEDAVIRVTGDCPLIDPIIVDNVVTKFLSSDYDYVRLDVPNTFVRGFDVEIFSMKALKTVNSLINGGKIPKEEADMYKEHVTLYMYKHPNEFKVGYVKGDEFYSKDYRLCVDTKEDFELVKNIYEHFNDEFVSSKNVINYLDRNSEIAQINNDIKQKEVLEHHHHHH
soluble on expression in E. coli: soluble

Now consider the entry below.
### Prompt Look up and report measured soluble on expression in E. coli for this entry: MKATSEELAIFVSVVESGSFSRAAEQLGQANSAVSRAVKKLEMKLGVSLLNRTTRQLSLTEEGERYFRRVQSILQEMAAAESEIMETRNTPRGLLRIDAATPVVLHFLMPLIKPFRERYPEVTLSLVSSETIINLIERKVDVAIRAGTLTDSSLRARPLFNSYRKIIASPDYISRYGKPETIDDLKQHVCLGFTEPASLNTWPIACSDGQLHEVKYGLSSNSGETLKQLCLSGNGIACLSDYMIDKEIARGELVELMADKVLPVEMPFSAVYYSDRAVSTRIRAFIDFLSEHVKTAPGGVMPIS
### Response not soluble
